Target: ULK1 (Homo sapiens, UniProt O75385)
Construct: purchased Promega V3521
Sequence (O75385 whole entry): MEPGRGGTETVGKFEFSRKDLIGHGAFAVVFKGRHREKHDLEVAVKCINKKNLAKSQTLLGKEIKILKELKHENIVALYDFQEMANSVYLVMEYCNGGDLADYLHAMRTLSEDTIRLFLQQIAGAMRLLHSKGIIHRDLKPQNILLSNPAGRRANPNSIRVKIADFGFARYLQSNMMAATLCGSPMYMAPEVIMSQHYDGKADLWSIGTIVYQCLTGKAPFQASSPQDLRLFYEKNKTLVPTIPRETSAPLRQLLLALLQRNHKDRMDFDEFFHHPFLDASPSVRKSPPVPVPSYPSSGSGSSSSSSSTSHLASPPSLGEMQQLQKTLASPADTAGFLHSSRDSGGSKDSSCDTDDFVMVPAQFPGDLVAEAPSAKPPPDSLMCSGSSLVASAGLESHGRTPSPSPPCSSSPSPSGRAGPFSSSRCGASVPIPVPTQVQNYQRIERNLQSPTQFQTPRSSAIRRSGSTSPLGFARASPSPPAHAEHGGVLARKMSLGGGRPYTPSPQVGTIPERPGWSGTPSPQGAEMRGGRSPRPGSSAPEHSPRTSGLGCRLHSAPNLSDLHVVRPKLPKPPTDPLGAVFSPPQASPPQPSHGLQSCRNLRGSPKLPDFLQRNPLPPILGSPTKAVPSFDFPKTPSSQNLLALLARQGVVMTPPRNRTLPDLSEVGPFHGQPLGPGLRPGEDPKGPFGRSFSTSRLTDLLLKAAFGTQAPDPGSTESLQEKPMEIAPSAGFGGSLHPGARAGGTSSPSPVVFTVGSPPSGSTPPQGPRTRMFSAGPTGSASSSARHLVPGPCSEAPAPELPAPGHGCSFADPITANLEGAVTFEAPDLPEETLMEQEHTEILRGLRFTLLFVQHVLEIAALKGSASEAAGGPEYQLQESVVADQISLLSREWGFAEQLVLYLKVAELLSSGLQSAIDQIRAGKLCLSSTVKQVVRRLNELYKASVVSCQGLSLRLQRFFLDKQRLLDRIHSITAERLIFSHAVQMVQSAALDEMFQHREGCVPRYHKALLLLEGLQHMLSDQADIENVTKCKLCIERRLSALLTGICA
Assay: Inhibition of ULK1 protein activity (phosphorylation function), ADP-Glo method
Assay type: biochemical
pIC50: −log10 of the molar value.
assay-readout: pIC50

Take a look at these entries with their results.
compound | assay-system | pIC50
CN1CCN2c3ccc(Nc4ncc(C(F)(F)F)c(N5CC6(CN(C)C6)C5)n4)cc3COCC2C1 (stereo not drawn) | ULK1 (Homo sapiens, UniProt O75385) | > 7.00
CN1CCN2c3ccc(Nc4ncc(C(F)(F)F)c(OCCCN5CCCCC5=O)n4)cc3COCC2C1 (stereo not drawn) | ULK1 (Homo sapiens, UniProt O75385) | > 7.00
CN1CCN2c3ccc(Nc4ncc(C(F)(F)F)c(OCCCn5cccn5)n4)cc3COCC2C1 (stereo not drawn) | ULK1 (Homo sapiens, UniProt O75385) | > 7.00
CN1CCN2c3ccc(Nc4ncc(C(F)(F)F)c(N5CCC6(CCN(C)C6)C5)n4)cc3COCC2C1 (stereo not drawn) | ULK1 (Homo sapiens, UniProt O75385) | > 7.00
CN1CCN2c3ccc(Nc4ncc(C(F)(F)F)c(N[C@H]5CC[C@@H](n6cccn6)CC5)n4)cc3COCC2C1 (stereo partly drawn) | ULK1 (Homo sapiens, UniProt O75385) | > 7.00

input: Item CN1CCN2c3ccc(Nc4ncc(C(F)(F)F)c(N5CCC(n6cccn6)CC5)n4)cc3COCC2C1 (stereo not drawn) has what recorded pIC50?
output: > 7.00
